# Protocol Details: yeast display, Sf9 membrane polyspecificity reagent, FACS + sequencing; frameworks hold sequencing errors
Measure Name: polyreactivity (PSR sort gate)

* QVQLVESGGGLVQAGGSLRLSCAASGYTFSNNAMGWYRQAPGKERELVAAISRSTGSTYYADSVKGRFTISRDYAKNTVYLQMNSLKPEDTAVYYCAVYRHGYGYNYWGQGTQVTVSS | high polyreactivity
* QVQLVESGGGLVQAGGSLRLSCAASGSTFYSNAMGWYRQAPGKERELVASIRFSGVITTYADSVKGRFTISRDNAKNTVYLQMNSLKPEDTAVYYWAAGYLSTTAYDYWGQGTQVTVSS | low polyreactivity
* QVQLVESGGGLVQAGGSLRLSCAASGRIFGHYAMGWYRHAPGKERELVAAINWRGGSTYYADSVKGRFTISRDNAKNTVYVQMKSLKPEETGVYYCAADWTKARDSIYDYWGQGSQVTVSS | low polyreactivity
* QVQLVESGGGLVQAGGSLRLSCAPSGSTFNFNAMGWYRQAPGKERELVAAISKSGTRTYYADSVKGRFTISRDNAKNTVYLQMNSLKPEDTAVYYCAAPAISSYDHGYWGQGTQVTVSS | high polyreactivity
* QVQLVESGGGLVQAGGSLRLSCAATGGTFNVYAMGWYRQAPGKESELVAAIRWSGGSTYYADSVKGRFTISRDNAKNTVYLQMNSLKPEDTAVYYCAARFYGRSQTYGSWGLGTQVTVSS | high polyreactivity
* QVQLVESWGGLVQAGGSLRLSCAASGRIFRNYVMGWYRQAPGKERELVAAISRSGGSTYYADSVKGRFTISRDNAKNTVYLQMNSLKPEDTAVYYCNADYATRRVSLNYGYWGQGTQVTVSS | high polyreactivity
* QVQLVESGGGLVQAGGSLRLSCAASGSTFDFYAMGLYRQAPGKERELVAAITSGGTTNYADSVKGRFTISRDNAKNTVYLQMNSLKPEDTAVYFCNAYYLGWYRVRAVTGYDYCGQGTQVTVSS | low polyreactivity
* QVQLVESGGGLVQAGGSLRLSCAASGSTIRSYAMGWYRQATRKERELVARIAYSSGRTYYADSVKGRFTISRDNAKNTVYLQMNSLKPEDTAVYYCAVRGYGYGYDYWGQGTQVTVSS | high polyreactivity
* QVQLVESGGGLVQAGGSLRLSCAASGSIFYGYAMGWYRQAPGKERELVAAISYSGDRTYYADSVKGRFTISRDNAKNTVYLQMNSLKPEDTAVYYCAARKHGGTVRGRRDYWGQGTQVTVSS | high polyreactivity
* QVQLVESGVGLVQAGGSLRLSCAASGRTFVGNAMGWYRQAPGKERELVAAISVSGGSTYYADSVKGRFTISRDNAKNTVYVQMNSLKPEDTAGYYCAADGYYNRYGYRTSDESEYWGQGTQVTVTS | low polyreactivity
* QVQLVESGGGLVQAGGSLRLSCAASGSTFEWNAMGWYRQAPGKERELVAAISGTGGNTYYADSVKGRFTISRYNAKNTVYLQMNSLKPEDTAVYYCNTDYGEYSSWDLQWWYIPYDYWGQGTQVTVSS | low polyreactivity

###

# Protocol Details: yeast display, Sf9 membrane polyspecificity reagent, FACS + sequencing; frameworks hold sequencing errors
Measure Name: polyreactivity (PSR sort gate)

- QVQLVESGGGLVQAGGSLRLSCAASGSIFRKYAMGWYRQATGKERELVAVITTDGSTNYADSVKGRFTISRDNAKNTVYLQMNSLKPEDTAVYYCNAVRSSIGTDNDYWGQGTQVTVSS: low polyreactivity
- QVQLVESGGGLVQAGGSLRLSCADSGLTFWVYAMGWYRQAPGKERELVAAISSGGSTNYADSVKGRFTISRDNAKNTVYVQMNSLKPEDTAVYYCAAEWVYWQDELWDSPGLVEFDYWGQGTQVTVSS: low polyreactivity
- QVQLVESGGGLVQAGGSLRLSCAASGLNFARNAMGWYRQAPGKERELVASITSGGSTNYADSVKGRFTISRDNAKNTVYLQMNSLKPEDTAVYFCNKAYFFPYPRYRYEYWGQGTQVTVSS: high polyreactivity
- QVQLVESGGGLVQAGGSLRLSCAASGRIFYYNAMGWYRQAPGKERELVAAISGSGGRTYYADSVKGRFTISRDNAKNTVYLQMNSLKPEDTAVYYCAAAGYDSNGRYWGQGTQVTVSS: high polyreactivity
- QVQLVESGGGLVQAGGSLRLSCAASGFIFDDNAMGWYRQAPGKERELVAAITSGGGSTYYADSVKGRFTISRDNAKNTVYLQMNSLKQEDTAVYYCNAVPSQHDEFDSWGQGTQVTVSS: low polyreactivity
- QVQLVESGGGLVQAGGSLRLICAASGFIFSYYAMGWYRQAPGKERELVAAISKTGGNTYYADSVKGRFTISRDYAKNTVYLQMNSLKPEDTAVYYCNALRGDWRDMGYWGQGTQVTVSS: high polyreactivity
- QVQLVESGGGLVQAGGSLRLSCSASGRTFDVYAMGWYRQAPGKERELVATIRSDGSTTYADSVKGRFTISRDNAKNTVYLQMNSLKPEDTAVYFCAADFRSGFSSSTTPVQSDWGQGTQVTVSS: low polyreactivity
- QVQLVESGGGLVQAGGSLRLSCAASGGTFQINAMGWYRQAPGKEREMVAAISAAGGRTYYADSVKGRFTISRDNANNTVYLQMNSLKPEDTAVSYCAADWSYQVGRHQYFPMRYDYWGQGTQVTVSS: high polyreactivity
- QVQLVESGGGLVQAGGSLRLSCAASGIIIVRYAMGWYRQAPGKERELVAAISWSGGRTYYADSVKGRFTISRDNAKNTVYFQINSLKPEDTAVYYCAAAPLYYHRRGYYYWGQGTQVTVSS: high polyreactivity
- QVQLVESGGGLVQAGGSLRLSCAASGSIIKRNAMGWSIQAPGKERELVASISSGGTYYADSVKGRFTISRDNAKNTVYLQMNSLKPEDSAVYYCATDRGVIYRGISGYIHYDYWGQGTQVTGSS: low polyreactivity
- QVQLVESGGGLVQAGGSLRLSCAASGRTLYRYAMGWYRQAPGKERELVAAIRSGGRTNYADSVKGRFTISRDNAKNTVYLQMNSLKPEDTAVYYCAARTLRYPSTYDYWGQGTQVTVSS: high polyreactivity
- QVQRVESGGGLVQAGGSLRLTCAASGRTFPGYAMGCYRQAPGKERELVAGISYRGGSTYYADSVKGRFTISRDNANNTVYLQMNSLKPEDSAVYYCALDYSRHKGDYWGQGTQVTVSS: low polyreactivity
- QVQLVESGGGLVQAGGSLRLSCAASGFIFWLYAMGRYRQAPGKERELVAAISNGGSTNYADSVKGRFTISRDNAKNTVYLQMNSLKPEDTAVYYCAAKFPRRFYWYDYWGQGTQVTVSS: high polyreactivity
- QVQLVESGGGLVQAGGSLRLSCAASGITFRRNAMGWYRQAQGKESQLVAAITSRGGSTYYADSVKWRFTISRDNAKNTVYLQMISMKPEDTAVYYCNAGGVDRVDRDYWGQGTQVTVSS: high polyreactivity
- QVQLVESGGGLVQAGGSLRLSCAASGRIFGDYAMGGSRQAPGKERELVAVISVGGRTSYADSVKGRFTISRDNAKNTVYLQMNSLKPEDTAVYYCATRLSTRDGGYWGQGTQVTVSS: low polyreactivity
- QVQLVESGGGLVQAGGSLRLSCAASGRIFYRNVMGWYRQAPGKERELVAAISYRGGSTSYADSVKGRFTISRDNAKNTVYLQMYSLKPEDTAVYYCNAGRIRPAYSDREYWGQGTQVTVSS: low polyreactivity
- QVQLVESGGGLVQAAGSLRLSCAASGRTFYDNAMGWYRQAPGKERELVAAITKSGGRTYYVDSVKGRFTISRDNAKNTVYLQMNSLKPEDTAVYYCAASWPNYLYEYWGQGTQVTVSS: high polyreactivity
- QVQLVESGGGLVQAGGSLRLSCAASGRIFRYNALGWYRQAPGKERELVAAITWNGASTFYADSVKGRFTISRDNAKNTVYLQMNSLKPEDTAVYYCATVRDISGYLYWSYNLYDYWGQGTQVTVSS: high polyreactivity
- QVQLVESGGGLVQAGGSLRLSCAASGNTLDAYAMGWYRQAPGKERELVAAITSGGSTYYADSVKGRFTISRDNAKNTVYLQMNILKPEDTAVYYCNADGHPSDPGYDYWGQGTQVTVSS: low polyreactivity
- QVQLVESGGGLVQAGGSLRLSCAASGRIFPYYAMGWYRQAPGKERELVATISTAGSTNYADSVKGRFTISRDNAKNTVYLQMNSLKPEDTAVYYCATRNTWYHRGYDYWGQGTQVTVSS: low polyreactivity
- QVQLVESGGGLVQAGGSLRLSCAASGFTFTGYAMGWYRQAPGKERELVAAISQSGGSTYADSVKGRFTISRDNAKNTVYLQMNSLKPEDTAVYYCAAVWFLLTEYDYWGQGTQVTVSS: low polyreactivity
